assay: Highest frequency of acute liver toxicity observed during clinical trials, expressed as a percentage. [column '% AIGUE' in source]; conditions: human
METRIC: Hepatotoxicity (acute) (%)
Could you give me the number in %? Just the number is fine.

Quick one: Hepatotoxicity (acute) for O=C(NCCN1CCOCC1)c1ccc(Cl)cc1 [MOCLOBEMIDE] ?
0

Quick one: Hepatotoxicity (acute) for CO[C@H]1C[C@H](O[C@H]2[C@H](C)[C@@H](O[C@@H]3O[C@H](C)C[C@H](N(C)C)[C@H]3OC(C)=O)[C@@H](C)C[C@@]3(CO3)C(=O)[C@H](C)[C@@H](OC(C)=O)[C@@H](C)[C@@H](C)OC(=O)[C@@H]2C)O[C@@H](C)[C@@H]1OC(C)=O [TROLEANDOMYCIN] ?
4

Quick one: Hepatotoxicity (acute) for Nc1ccc(S(N)(=O)=O)cc1 [SULFANILAMIDE] ?
0

Quick one: Hepatotoxicity (acute) for CC(C)(S)[C@@H](N)C(=O)O [PENICILLAMINE] ?
0

Quick one: Hepatotoxicity (acute) for COC1=CC(=O)C[C@@H](C)[C@]12Oc1c(Cl)c(OC)cc(OC)c1C2=O [GRISEOFULVIN] ?
2.8

Quick one: Hepatotoxicity (acute) for O=[N+]([O-])c1ccc(O)c([N+](=O)[O-])c1 [2,4-DINITROPHENOL] ?
0

Quick one: Hepatotoxicity (acute) for O=C(O)c1nn(Cc2ccc(Cl)cc2Cl)c2ccccc12 [LONIDAMINE] ?
0

Quick one: Hepatotoxicity (acute) for CS(=O)(=O)c1ccc(C2=C(c3ccccc3)C(=O)OC2)cc1 [ROFECOXIB] ?
0

====

Please go through the items and note down their Hepatotoxicity (choleostasis).
conditions: human

Quick one: Hepatotoxicity (choleostasis) for "STREPTOKINASE" ?
3

Quick one: Hepatotoxicity (choleostasis) for "ENOXAPARIN" ?
0

Quick one: Hepatotoxicity (choleostasis) for "RITUXIMAB" ?
0

Quick one: Hepatotoxicity (choleostasis) for "SERRAPEPTASE" ?
0

Quick one: Hepatotoxicity (choleostasis) for "INFLIXIMAB" ?
2

Quick one: Hepatotoxicity (choleostasis) for DALTEPARIN SODIUM ?
0

Quick one: Hepatotoxicity (choleostasis) for "ALDESLEUKIN" ?
6

Quick one: Hepatotoxicity (choleostasis) for REVIPARIN SODIUM ?
0

Quick one: Hepatotoxicity (choleostasis) for "POVIDONE-IODINE" ?
0

Quick one: Hepatotoxicity (choleostasis) for "GALLIUM" ?
1

Quick one: Hepatotoxicity (choleostasis) for "POVIDONE" ?
0

Quick one: Hepatotoxicity (choleostasis) for "POLOXAMER" ?
0

Quick one: Hepatotoxicity (choleostasis) for "COLESTIPOL" ?
0

Quick one: Hepatotoxicity (choleostasis) for MEGLUMINE ANTIMONATE ?
0

Quick one: Hepatotoxicity (choleostasis) for "LENTINAN" ?
0

Quick one: Hepatotoxicity (choleostasis) for EPOETIN ALFA ?
0

Quick one: Hepatotoxicity (choleostasis) for "PALIVIZUMAB" ?
0

Quick one: Hepatotoxicity (choleostasis) for "PEGLOTICASE" ?
0

Quick one: Hepatotoxicity (choleostasis) for "SPIRAMYCIN" ?
3

Quick one: Hepatotoxicity (choleostasis) for "CARBOPLATIN" ?
1

====

conditions: human
METRIC: Hepatotoxicity (cytolytic)

Quick one: Hepatotoxicity (cytolytic) for "COc1ccc2c(C(=O)c3ccc(Cl)cc3)c(C)n(CC(=O)O)c2c1" ?
14

Quick one: Hepatotoxicity (cytolytic) for CC(=O)OCOC(=O)C1=C(COC(N)=O)SC2[C@H]([C@H](C)O)C(=O)N12 (stereo not given in full) ?
0

Quick one: Hepatotoxicity (cytolytic) for "CC(=O)[C@H]1CC[C@H]2[C@@H]3CC[C@H]4C[C@H](O)CC[C@]4(C)[C@H]3C(=O)C[C@]12C.C[C@]12CC[C@@H](O)C[C@@H]1CC[C@H]1[C@@H]3CC[C@H](C(=O)CO)[C@@]3(C)CC(=O)[C@@H]12" ?
0

Quick one: Hepatotoxicity (cytolytic) for CN(CCOc1ccc(CC2SC(=O)NC2=O)cc1)c1ccccn1 (stereo not given) ?
7

Quick one: Hepatotoxicity (cytolytic) for CC(=O)Nc1ccc(OCC(O)CNC(C)C)cc1 (stereo not given) ?
0

Quick one: Hepatotoxicity (cytolytic) for "NC(=O)c1ncn([C@@H]2O[C@H](CO)[C@@H](O)[C@H]2O)n1" ?
1

Quick one: Hepatotoxicity (cytolytic) for "CN1C(=O)CN=C(c2ccccc2)c2cc(Cl)ccc21" ?
3

Quick one: Hepatotoxicity (cytolytic) for "CCOC(=O)[C@H](CCc1ccccc1)N[C@@H](C)C(=O)N1Cc2ccccc2C[C@H]1C(=O)O" ?
0

Quick one: Hepatotoxicity (cytolytic) for "CO/N=C(\C(=O)N[C@@H]1C(=O)N2C(C(=O)OCOC(=O)C(C)(C)C)=C(Cn3nnc(C)n3)CS[C@H]12)c1csc(N)n1" ?
0

Quick one: Hepatotoxicity (cytolytic) for CCCCC1C(=O)N(c2ccccc2)N(c2ccc(O)cc2)C1=O (stereo not given) [OXYPHENBUTAZONE ANHYDROUS] ?
4

Quick one: Hepatotoxicity (cytolytic) for "CCN[C@@H](C)Cc1cccc(C(F)(F)F)c1" ?
0

Quick one: Hepatotoxicity (cytolytic) for CC(C)OC(=O)C(C)(C)Oc1ccc(C(=O)c2ccc(Cl)cc2)cc1 [FENOFIBRATE] ?
11

Quick one: Hepatotoxicity (cytolytic) for "CCC(=O)[C@@]1(C)CC[C@H]2[C@@H]3CCC4=CC(=O)CCC4=C3CC[C@@]21C" ?
0

Quick one: Hepatotoxicity (cytolytic) for "CC(/C=C1\SC(=S)N(CC(=O)O)C1=O)=C\c1ccccc1" ?
1

Quick one: Hepatotoxicity (cytolytic) for "CC[C@@]1(O)C[C@H](O[C@H]2C[C@H](N(C)C)[C@H](O[C@H]3C[C@H](O)[C@H](O[C@H]4CCC(=O)[C@H](C)O4)[C@H](C)O3)[C@H](C)O2)c2c(cc3c(c2O)C(=O)c2c(O)cccc2C3=O)[C@H]1C(=O)OC" ?
0

====

Please go through the items and note down their Hepatotoxicity (chronic liver disease).
conditions: human, serum, 4383 h
// return just the number, without any unit appended

Quick one: Hepatotoxicity (chronic liver disease) for "NC(N)=Nc1nc(CSCCN/C=N/S(=O)(=O)c2ccc(Br)cc2)cs1" ?
1

Quick one: Hepatotoxicity (chronic liver disease) for "CN1[C@@H]2CC[C@H]1C[C@@H](OC(=O)c1c[nH]c3ccccc13)C2" ?
0

Quick one: Hepatotoxicity (chronic liver disease) for "Cc1ncsc1CCCl" ?
0

Quick one: Hepatotoxicity (chronic liver disease) for FC(F)OC(F)(F)C(F)Cl (configuration not stated) ?
0

Quick one: Hepatotoxicity (chronic liver disease) for O=C1CC[C@@]2(O)[C@H]3Cc4ccc(O)c5c4[C@@]2(CCN3CC2CC2)[C@H]1O5 [NALTREXONE] ?
0

Quick one: Hepatotoxicity (chronic liver disease) for CCC1(c2ccc(N)cc2)CCC(=O)NC1=O (configuration not stated) [AMINOGLUTETHIMIDE] ?
0

Quick one: Hepatotoxicity (chronic liver disease) for "Cc1cn([C@H]2C[C@H](F)[C@@H](CO)O2)c(=O)[nH]c1=O" ?
0

Quick one: Hepatotoxicity (chronic liver disease) for "CCN(CC)CCCN(c1ccccc1)C1Cc2ccccc2C1" ?
0

Quick one: Hepatotoxicity (chronic liver disease) for COc1ccc(C(=O)Nc2ccccc2CCC2CCCCN2C)cc1 (configuration not stated) [ENCAINIDE] ?
0

Quick one: Hepatotoxicity (chronic liver disease) for C[C@@H](O)[C@H]1C(=O)N2C(C(=O)[O-])=C(SC3Cn4cnc[n+]4C3)[C@H](C)[C@H]12 (some centres not stated) ?
0

Quick one: Hepatotoxicity (chronic liver disease) for "CCCc1c2oc(C(=O)O)cc(=O)c2cc2c(=O)cc(C(=O)O)n(CC)c12" ?
0

Quick one: Hepatotoxicity (chronic liver disease) for "CO/N=C(\C(=O)N[C@@H]1C(=O)N2C(C(=O)O)=C(C)CS[C@H]12)c1csc(N)n1" ?
0

Quick one: Hepatotoxicity (chronic liver disease) for NC(=O)NC(=O)Cc1ccccc1 [PHENACEMIDE] ?
0

Quick one: Hepatotoxicity (chronic liver disease) for "CO/N=C(\C(=O)N[C@@H]1C(=O)N2C(C(=O)[O-])=C(C[n+]3cccc4c3CCC4)CS[C@H]12)c1csc(N)n1" ?
0

Quick one: Hepatotoxicity (chronic liver disease) for "CN(Cc1cnc2nc(N)nc(N)c2n1)c1c(Cl)cc(C(=O)N[C@@H](CCC(=O)O)C(=O)O)cc1Cl" ?
0

Quick one: Hepatotoxicity (chronic liver disease) for "CN1CCN(C2=Nc3cc(Cl)ccc3Nc3ccccc32)CC1" ?
0

Quick one: Hepatotoxicity (chronic liver disease) for "COc1c2occc2cc2ccc(=O)oc12" ?
0

Quick one: Hepatotoxicity (chronic liver disease) for CCCC1C(=O)N2C(N(C)C)=Nc3ccc(C)cc3N2C1=O (configuration not stated) ?
0

Quick one: Hepatotoxicity (chronic liver disease) for "Nc1ccn([C@@H]2CS[C@H](CO)O2)c(=O)n1" ?
1

Quick one: Hepatotoxicity (chronic liver disease) for "O=c1n(CCCN2CCN(c3cccc(Cl)c3)CC2)nc2ccccn12" ?
1

Quick one: Hepatotoxicity (chronic liver disease) for "NC(N)=Nc1nc(CSCCC(N)=NS(N)(=O)=O)cs1" ?
0

Quick one: Hepatotoxicity (chronic liver disease) for "C=C1c2cccc(O)c2C(=O)C2=C(O)[C@]3(O)C(=O)C(C(N)=O)=C(O)[C@@H](N(C)C)[C@@H]3[C@@H](O)[C@H]12" ?
0

Quick one: Hepatotoxicity (chronic liver disease) for "CCO.CN1CCC[C@H]1c1cccnc1" ?
1

Quick one: Hepatotoxicity (chronic liver disease) for "O=[As](O)(O)c1ccc(NCCNc2ccc([As](=O)(O)O)cc2)cc1" ?
0

Quick one: Hepatotoxicity (chronic liver disease) for "O=C(Cc1cccs1)N[C@@H]1C(=O)N2C(C(=O)[O-])=C(C[n+]3ccccc3)CS[C@H]12" ?
0

Quick one: Hepatotoxicity (chronic liver disease) for "CSc1ccc(C(=O)c2[nH]c(=O)[nH]c2C)cc1" ?
0

Quick one: Hepatotoxicity (chronic liver disease) for "CCN[C@@H](C)Cc1cccc(C(F)(F)F)c1" ?
0

Quick one: Hepatotoxicity (chronic liver disease) for "Clc1ccccc1CN1CCc2sccc2C1" ?
1

Quick one: Hepatotoxicity (chronic liver disease) for "COc1ccc(Cc2nccc3cc(OC)c(OC)cc23)cc1OC" ?
4

Quick one: Hepatotoxicity (chronic liver disease) for CO/N=C(\C(=O)N[C@@H]1C(=O)N2C(C(=O)OC(C)OC(C)=O)=C(COC(N)=O)CS[C@H]12)c1ccco1 (some centres not stated) ?
0

Quick one: Hepatotoxicity (chronic liver disease) for "C[C@H](CSC(=O)c1ccccc1)C(=O)N1C[C@@H](Sc2ccccc2)C[C@H]1C(=O)O" ?
0

Quick one: Hepatotoxicity (chronic liver disease) for CC(NN)c1ccccc1 (configuration not stated) ?
0

Quick one: Hepatotoxicity (chronic liver disease) for "OC(CCCN1CCCCC1)(c1ccccc1)c1ccccc1" ?
0

Quick one: Hepatotoxicity (chronic liver disease) for "C[C@]12C/C(=C/O)C(=O)C[C@@H]1CC[C@@H]1[C@@H]2CC[C@@]2(C)[C@H]1CC[C@]2(C)O" ?
0

Quick one: Hepatotoxicity (chronic liver disease) for "CNn1cc(C(=O)O)c(=O)c2cc(F)c(N3CCN(C)CC3)cc21" ?
0

Quick one: Hepatotoxicity (chronic liver disease) for "C[C@](N)(Cc1ccc(O)c(O)c1)C(=O)O" ?
27

Quick one: Hepatotoxicity (chronic liver disease) for CN(C)CCN1C(=O)c2cccc3cc(N)cc(c23)C1=O [AMONAFIDE] ?
0

All figures here come from ChEMBL document CHEMBL3137667.
